B1: 1ZHC (parent)
chain: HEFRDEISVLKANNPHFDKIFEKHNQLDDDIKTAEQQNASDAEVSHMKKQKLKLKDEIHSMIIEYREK

variants of: B1; assay: folding stability dG (cDNA display proteolysis); higher = more stable; settings: PBS, room temperature
Label Y when folding stability dG is at or above 0.7 kcal/mol; anything below gets N.

stdin: Could you verify whether the entry S60E shows folding stability dG of no less than 0.7 kcal/mol?
stdout: N

stdin: Could you verify whether the entry P15Y shows folding stability dG of no less than 0.7 kcal/mol?
stdout: N

stdin: Could you verify whether the entry T33M shows folding stability dG of no less than 0.7 kcal/mol?
stdout: Y

stdin: Could you verify whether the entry E35R shows folding stability dG of no less than 0.7 kcal/mol?
stdout: N

stdin: Could you verify whether the entry E6T shows folding stability dG of no less than 0.7 kcal/mol?
stdout: Y

stdin: Could you verify whether the entry D5Q shows folding stability dG of no less than 0.7 kcal/mol?
stdout: N

stdin: Could you verify whether the entry A34C shows folding stability dG of no less than 0.7 kcal/mol?
stdout: N

stdin: Could you verify whether the entry P15N shows folding stability dG of no less than 0.7 kcal/mol?
stdout: N

stdin: Could you verify whether the entry V44S shows folding stability dG of no less than 0.7 kcal/mol?
stdout: N

stdin: Could you verify whether the entry K11L shows folding stability dG of no less than 0.7 kcal/mol?
stdout: Y

stdin: Could you verify whether the entry E64H shows folding stability dG of no less than 0.7 kcal/mol?
stdout: N

stdin: Could you verify whether the entry I7N shows folding stability dG of no less than 0.7 kcal/mol?
stdout: N

stdin: Could you verify whether the entry I20C shows folding stability dG of no less than 0.7 kcal/mol?
stdout: N

stdin: Could you verify whether the entry E64R shows folding stability dG of no less than 0.7 kcal/mol?
stdout: N

stdin: Could you verify whether the entry E67L shows folding stability dG of no less than 0.7 kcal/mol?
stdout: Y

stdin: Could you verify whether the entry D30A shows folding stability dG of no less than 0.7 kcal/mol?
stdout: Y

stdin: Could you verify whether the entry R4L shows folding stability dG of no less than 0.7 kcal/mol?
stdout: Y

stdin: Could you verify whether the entry Y65A shows folding stability dG of no less than 0.7 kcal/mol?
stdout: N

stdin: Could you verify whether the entry D56L shows folding stability dG of no less than 0.7 kcal/mol?
stdout: Y

stdin: Could you verify whether the entry V44Y shows folding stability dG of no less than 0.7 kcal/mol?
stdout: N

stdin: Could you verify whether the entry L52S shows folding stability dG of no less than 0.7 kcal/mol?
stdout: Y

stdin: Could you verify whether the entry D41G shows folding stability dG of no less than 0.7 kcal/mol?
stdout: N

stdin: Could you verify whether the entry H46V shows folding stability dG of no less than 0.7 kcal/mol?
stdout: N

stdin: Could you verify whether the entry E22R shows folding stability dG of no less than 0.7 kcal/mol?
stdout: Y

stdin: Could you verify whether the entry V9W shows folding stability dG of no less than 0.7 kcal/mol?
stdout: Y

stdin: Could you verify whether the entry K51V shows folding stability dG of no less than 0.7 kcal/mol?
stdout: Y

stdin: Could you verify whether the entry A34Q shows folding stability dG of no less than 0.7 kcal/mol?
stdout: N

stdin: Could you verify whether the entry N38V shows folding stability dG of no less than 0.7 kcal/mol?
stdout: N

stdin: Could you verify whether the entry E22C shows folding stability dG of no less than 0.7 kcal/mol?
stdout: Y

stdin: Could you verify whether the entry R4Y shows folding stability dG of no less than 0.7 kcal/mol?
stdout: Y

stdin: Could you verify whether the entry H59R shows folding stability dG of no less than 0.7 kcal/mol?
stdout: Y

stdin: Could you verify whether the entry K53P shows folding stability dG of no less than 0.7 kcal/mol?
stdout: N

stdin: Could you verify whether the entry K68I shows folding stability dG of no less than 0.7 kcal/mol?
stdout: N
